Ref: PubChem BioAssay (NCATS)

Experiment: qHTS of pediatric cancer cell lines to identify multiple opportunities for drug repurposing: Confirmatory screen for Rh30 cells (AID 1347126); also: nearly all actives have a fitted effect of over 55% in size
Conditions: Rh30 rhabdomyosarcoma cell viability; series mostly up to 45.9 µM
Results filed as inconclusive are left out. The source made the active and inactive calls. Calls follow the shape of the dose curve; as a rule, active = well fitted cell-killing curve with a large enough effect; inconclusive = small, poorly fitted or top-dose-only effect, or effect the other way; inactive = no such curve, though single readings can be large or run the other way.
Outcome codes: active, inactive

- COMPOUND: "COc1cc(NCc2ccc3nc(N)nc(N)c3c2C)cc(OC)c1OC"
  LABEL: "active"
- COMPOUND: "CN(C)c1ccc(C(=C2C=CC(=[N+](C)C)C=C2)c2ccc(N(C)C)cc2)cc1"
  LABEL: "active"
- COMPOUND: "CNCC[C@H](Oc1cccc2ccccc12)c1cccs1"
  LABEL: "inactive"
- COMPOUND: "S=P(N1CC1)(N1CC1)N1CC1"
  LABEL: "inactive"
- COMPOUND: "CC(C)(C#N)c1cc(Cn2cncn2)cc(C(C)(C)C#N)c1"
  LABEL: "inactive"
- COMPOUND: "O=S(=O)(O)CCS"
  LABEL: "inactive"
- COMPOUND: "CCC(=O)O[C@]1(C(=O)CCl)[C@@H](C)C[C@H]2[C@@H]3CCC4=CC(=O)C=C[C@]4(C)[C@@]3(F)[C@@H](O)C[C@@]21C"
  LABEL: "active"
- COMPOUND: "Nc1nc(N)nc(-c2cc(Cl)ccc2Cl)n1"
  LABEL: "inactive"
- COMPOUND: "CC(C(=O)O)c1ccc2c(c1)CC(=O)c1ccccc1S2 (stereo unspecified)"
  LABEL: "inactive"
- COMPOUND: "O=C(NCC1CN(c2ccc(N3CCOCC3=O)cc2)C(=O)O1)c1ccc(Cl)s1 (stereo unspecified)"
  LABEL: "inactive"
- COMPOUND: "CCc1c2c(nc3ccc(OC(=O)N4CCC(N5CCCCC5)CC4)cc13)-c1cc3c(c(=O)n1C2)COC(=O)[C@]3(O)CC"
  LABEL: "active"
